Biological target: human GPR17 short isoform (Homo sapiens, UniProt Q13304)
Sequence (Q13304 29-367): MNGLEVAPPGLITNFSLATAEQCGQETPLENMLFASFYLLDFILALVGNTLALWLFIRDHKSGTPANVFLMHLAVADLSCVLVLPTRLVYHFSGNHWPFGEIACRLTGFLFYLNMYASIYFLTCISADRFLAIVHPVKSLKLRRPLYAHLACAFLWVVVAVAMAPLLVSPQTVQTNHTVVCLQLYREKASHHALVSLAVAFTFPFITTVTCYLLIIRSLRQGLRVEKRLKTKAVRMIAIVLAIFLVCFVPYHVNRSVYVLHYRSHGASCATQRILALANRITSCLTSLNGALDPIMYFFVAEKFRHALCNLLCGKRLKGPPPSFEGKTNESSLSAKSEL
Assay: hGPR17 cAMP assay (GPR17 cAMP Assay Protocol, antagonist mode)
Conditions: CHO-K1 cells stably expressing untagged human GPR17 short isoform; EC80 of agonist MDL29,951; forskolin 15 μM; 30 min, room temperature; TR-FRET cAMP readout
measured-property: IC50 (nM)

Previously resolved entries follow.
item-smiles: COc1ncc(S(=O)(=O)Nc2cc(F)c(CC#N)cc2F)c2ccc(Cl)cc12
unit-abbrev: nM
test-result: 905
--
item-smiles: COc1nc(OCC(F)F)c(F)cc1NS(=O)(=O)c1cc(=O)[nH]c2cc(Cl)ccc12
unit-abbrev: nM
test-result: 35
--
item-smiles: COc1nc(OCC(F)F)c(F)cc1NS(=O)(=O)c1c[nH]c(=O)c2cc(Cl)ccc12
unit-abbrev: nM
test-result: 5
--
item-smiles: COc1nc(OCC(F)F)c(F)cc1NS(=O)(=O)c1cc(=O)n(C)c2cc(Cl)ccc12
unit-abbrev: nM
test-result: 246
--
item-smiles: COc1nc(OCC(F)F)c(F)cc1NS(=O)(=O)c1cccc2nc(Br)ccc12
unit-abbrev: nM
test-result: 9
--
item-smiles: COc1nc(OC(F)F)c(F)cc1NS(=O)(=O)c1cccc2nc(Cl)ccc12
unit-abbrev: nM
test-result: 49
--
item-smiles: COc1nc(OCC(F)F)c(F)cc1NS(=O)(=O)c1cccc2c(Cl)cccc12
unit-abbrev: nM
test-result: 43
--
item-smiles: N#CCc1cc(F)c(NS(=O)(=O)c2cccc3nc(Cl)ccc23)cc1F
unit-abbrev: nM
test-result: 217
--
item-smiles: COc1nc(C2CC2)c(F)cc1NS(=O)(=O)c1cccc2nc(Cl)ccc12
unit-abbrev: nM
test-result: 45
--
item-smiles: COc1nc(OC(F)F)c(F)cc1NS(=O)(=O)c1cncc2cc(Cl)ccc12
unit-abbrev: nM
test-result: 92

A: COc1nc(OC(F)F)c(F)cc1NS(=O)(=O)c1c[nH]c(=O)c2cc(Cl)ccc12
B: COc1nc(OCC(F)F)c(F)cc1NS(=O)(=O)c1cncc2cc(Cl)ccc12
Please indicate which item has the smaller measured IC50: A versus B Selection: enter the item's label.
B
(B: 11 nM, A: 19 nM)

P: N#CCc1cc(F)c(NS(=O)(=O)c2c[nH]c(=O)c3cc(Cl)ccc23)cc1F
Q: CNc1ncc(S(=O)(=O)Nc2cc(F)c(CC#N)cc2F)c2ccc(Cl)cc12
R: N#CCc1cc(F)c(NS(=O)(=O)c2cccc3c(Cl)cccc23)cc1F
// ascending sort on recorded IC50 I would appreciate it if you listed the labels in the requested order.
R, P, Q
(R: 88 nM, P: 174 nM, Q: 315 nM)

1: COc1nc(NS(=O)(=O)c2cncc3cc(Cl)ccc23)c(F)cc1OCC(F)F
2: N#CCc1cc(F)c(NS(=O)(=O)c2cccc3ccccc23)cc1F
Could you tell me which of 1 and 2 has the lower IC50 reading? Respond with the label that goes with your answer.
2

I: CN(C)c1ncc(S(=O)(=O)Nc2cc(F)c(CC#N)cc2F)c2ccc(Cl)cc12
II: N#CCc1cc(F)c(NS(=O)(=O)c2c[nH]c(=O)c3nc(Cl)ccc23)cc1F
III: COc1nc(OCC(F)F)c(F)cc1NS(=O)(=O)c1cccc2nc(C)ccc12
IV: COc1nc(CC#N)c(F)cc1NS(=O)(=O)c1cccc2nc(Cl)ccc12
List from greatest to least IC50. Output spec: labels arranged per the requested ranking.
II, I, IV, III
